System: Escherichia co/i expressing NDM-1 (CLB30016)
Test: Growth inhibitory concentration (OD600), E. coli CLB30016
Format: cell-based, Escherichia coli
Conditions: lowest concentration inhibiting 95% of growth (OD600); with BLi relebactam 4 μg/mL; 22 hours, 35±2° C.
Give measured EC_CLB30016 MITC95 for each item. Keep answers brief.
Just the number please, in µM, no unit attached.

[in] What EC_CLB30016 MITC95 value was documented for this compound, CC1(C)[C@H](NC(=O)/C(=N\O[C@](C)(C(=O)O)[C@H]2CCc3cc(C(=N)N[C@H]4C[C@@](N)(CCO)C4)ccc3O2)c2csc(N)n2)C(=O)N1OS(=O)(=O)O [Compound 87] ?
[out] 6.25

[in] Reported EC_CLB30016 MITC95 for CC1(C)[C@H](NC(=O)/C(=N\O[C@](C)(C(=O)O)[C@H]2CCc3cc(C(=N)N[C@H]4CC[C@](O)(CN)CC4)ccc3O2)c2csc(N)n2)C(=O)N1OS(=O)(=O)O [Compound 59] : what is it?
[out] 12.5

[in] # lookup: EC_CLB30016 MITC95 of CC1(C)[C@H](NC(=O)/C(=N\O[C@](C)(C(=O)O)[C@H]2CCc3cc(C(=N)NC4CCC(N)(CO)CC4)ccc3O2)c2csc(N)n2)C(=O)N1OS(=O)(=O)O (some centres unmarked) [Compound 69]
[out] 6.25

[in] What does the record list as EC_CLB30016 MITC95 for COCc1c(C(=N)N[C@H]2C[C@@H](N)C2)ccc2c1CC[C@H]([C@](C)(O/N=C(\C(=O)N[C@@H]1C(=O)N(OS(=O)(=O)O)C1(C)C)c1csc(N)n1)C(=O)O)O2 [Compound 124] ?
[out] 50

[in] So what's the measured EC_CLB30016 MITC95 for this one? CC1(C)[C@H](NC(=O)/C(=N\O[C@](C)(C(=O)O)[C@H]2CCc3cc(C(=N)N[C@H]4C[C@@]5(CCNC5)C4)ccc3O2)c2csc(N)n2)C(=O)N1OS(=O)(=O)O [Compound 23]
[out] 6.25

[in] I have this compound here, CC1(C)[C@H](NC(=O)/C(=N\O[C@](C)(C(=O)O)[C@H]2CCc3cc(C(=N)N[C@H]4C[C@](N)(C(O)CO)C4)ccc3O2)c2csc(N)n2)C(=O)N1OS(=O)(=O)O (some centres unmarked) [Compound 100] , and I need its recorded EC_CLB30016 MITC95.
[out] 6.25

[in] Entry under review: COC[C@]1(NC(=N)c2ccc3c(c2)CC[C@H]([C@](C)(O/N=C(\C(=O)N[C@@H]2C(=O)N(OS(=O)(=O)O)C2(C)C)c2csc(N)n2)C(=O)O)O3)CC[C@@H](N)CC1 [Compound 126] . Reported EC_CLB30016 MITC95?
[out] 25

[in] Dear colleague, I am looking for the recorded EC_CLB30016 MITC95 of the following compound: COC[C@]1(NC(=N)c2ccc3c(c2)CC[C@H]([C@](C)(O/N=C(\C(=O)N[C@@H]2C(=O)N(OS(=O)(=O)O)C2(C)C)c2csc(N)n2)C(=O)O)O3)CC[C@H](N)CC1 [Compound 127]
[out] 6.25

====

System: Escherichia co/i expressing NDM-1 (CLB30016)
Assay: Growth inhibitory concentration (OD600), E. coli CLB30016
Assay type: cell-based, Escherichia coli
Settings: lowest concentration inhibiting 95% of growth (OD600); with BLi relebactam 4 μg/mL; 22 hours, 35±2° C.
Method: The concentrations of compounds required to inhibit the growth of various strains of bacteria were determined in an assay that assessed bacterial growth by measuring optical density at 600 nm (OD600). […] The clinical strains were stored as frozen single use stocks, thawed and diluted into 1.1× cation-adjusted Mueller-Hinton 11 broth to achieve approximately 2×10^5 CFU/mL. […] At the end of the incubation, absorbance at 600 nm was determined using a spectrophotometer. […]
Would you mind telling me the reported EC_CLB30016 MITC95 of each entry?
Note: unit µM is implicit; provide only the numeric part.

[in] Param item = `CC1(C)[C@H](NC(=O)/C(=N\O[C@](C)(C(=O)O)[C@H]2CCc3cc(C(=N)N[C@H]4C[C@@](N)(C[C@@H](O)CO)C4)ccc3O2)c2csc(N)n2)C(=O)N1OS(=O)(=O)O` ; retrieve measured EC_CLB30016 MITC95.
[out] 6.25

[in] Give the measured EC_CLB30016 MITC95 of `CC1(C)[C@H](NC(=O)/C(=N\O[C@](C)(C(=O)O)[C@H]2CCc3cc(C(=N)N[C@]4(C)CC[C@@H](N)CC4)ccc3O2)c2csc(N)n2)C(=O)N1OS(=O)(=O)O` .
[out] 9.375

[in] Look up EC_CLB30016 MITC95: `COCC[C@]1(N)CC[C@@H](NC(=N)c2ccc3c(c2)CC[C@H]([C@](C)(O/N=C(\C(=O)N[C@@H]2C(=O)N(OS(=O)(=O)O)C2(C)C)c2csc(N)n2)C(=O)O)O3)CC1`
[out] 12.5

[in] // EC_CLB30016 MITC95 lookup, key: CC1(C)[C@H](NC(=O)/C(=N\O[C@](C)(C(=O)O)[C@H]2CCc3cc(C(=N)NC4CC(N)(C[C@H](O)CO)C4)ccc3O2)c2csc(N)n2)C(=O)N1OS(=O)(=O)O (stereo partly shown)
[out] 3.125

[in] Query: EC_CLB30016 MITC95; subject: `CC1(C)[C@H](NC(=O)/C(=N\O[C@](C)(C(=O)O)[C@H]2CCc3cc(C(=N)N[C@H]4C[C@](CN)(CO)C4)ccc3O2)c2csc(N)n2)C(=O)N1OS(=O)(=O)O`
[out] 6.25

[in] # get_value(readout='EC_CLB30016 MITC95', item= `CC1(C)[C@H](NC(=O)/C(=N\O[C@](C)(C(=O)O)[C@H]2CCc3cc(C(=N)N[C@H]4C[C@](N)(CCO)C4)ccc3O2)c2csc(N)n2)C(=O)N1OS(=O)(=O)O` )
[out] 6.25

[in] Using the record for `CC1(C)[C@H](NC(=O)/C(=N\O[C@](C)(C(=O)O)[C@H]2CCc3cc(C(=N)N[C@H]4CC[C@H](N)CC4)ccc3O2)c2csc(N)n2)C(=O)N1OS(=O)(=O)O` , report its EC_CLB30016 MITC95.
[out] 3.125

[in] // EC_CLB30016 MITC95 lookup, key: `CC1(C)[C@H](NC(=O)/C(=N\O[C@](C)(C(=O)O)[C@H]2CCc3cc(C(=N)N[C@H]4C[C@@H](N)C4)ccc3O2)c2csc(N)n2)C(=O)N1OS(=O)(=O)O`
[out] 4.688

[in] EC_CLB30016 MITC95 for CC1(C)[C@H](NC(=O)/C(=N\O[C@](C)(C(=O)O)[C@H]2CCc3cc(C(=N)N[C@H]4C[C@@](N)(C(O)CO)C4)ccc3O2)c2csc(N)n2)C(=O)N1OS(=O)(=O)O (stereo partly shown) ?
[out] 6.25

[in] Returns the measured EC_CLB30016 MITC95 for the input molecule. Input: `CC1(C)[C@H](NC(=O)/C(=N\O[C@](C)(C(=O)O)[C@H]2CCc3cc(C(=N)N[C@H]4C[C@]5(CCNC5)C4)ccc3O2)c2csc(N)n2)C(=O)N1OS(=O)(=O)O`
[out] 3.125
